These data points were gathered from PubChem BioAssay (NCATS).

# assay_explanation: UWB1.289 Cancer Cell Toxicity qHTS against the NCATS CANVASS Library (AID 1347347); note: nearly all actives have a fitted effect of over 60% in size; note: potency is the fitted concentration of half-maximal effect
# details: UWB1.289 viability, CellTiter-Glo luminescence, 72 h; series mostly up to 38.3 µM
Inconclusive results are not listed. Calls of active or inactive are those of the source. Calls come from the whole dose curve; as a rule, active = well fitted cell-killing curve with a large enough effect; inconclusive = small, poorly fitted or top-dose-only effect; inactive = flat fitted curve, though single readings scatter.
measurement_type: Potency

[[record]]
record_smiles = "C=CC(C)(C)[C@@]12C[C@H]3C(=O)N/C(=C/c4cnc[nH]4)C(=O)N3[C@@H]1Nc1ccccc12"
measurement_type = "Potency"
assay_value = "inactive"

[[record]]
record_smiles = "CO[C@H]([C@@H](C)[C@H]1O[C@]1(C)C[C@H](C)/C=C/C=C(\\C)[C@H]1O[C@@H](CC(=O)O)CC[C@@H]1C)[C@@H](C)O"
measurement_type = "Potency"
assay_value = "18.8 nM (active)"

[[record]]
record_smiles = "CO[C@@H](/C=C/CC/C=C/C(=O)O)[C@@H](O)[C@H](C)/C=C(\\C)[C@H](O)[C@H](C)C(=O)CCCC1CC(=O)NC(=O)C1"
measurement_type = "Potency"
assay_value = "inactive"

[[record]]
record_smiles = "C[N+](C)(C)CCc1c[nH]c2ccccc12"
measurement_type = "Potency"
assay_value = "inactive"

[[record]]
record_smiles = "C=CC(C)(C)[C@@]12C[C@H]3C(=O)N/C(=C\\c4cnc[nH]4)C(=O)N3[C@@H]1Nc1ccccc12"
measurement_type = "Potency"
assay_value = "inactive"


Batch lookup, Potency per entry.
1. CO[C@@]12c3c(C)cc(O)c4c(=O)occ(c34)C(=O)[C@@H]1[C@]13COC(=O)c4c(O)cc(C)c(c41)C(=O)[C@H]2[C@@H]3OC(C)=O
2. C/C=C1/CN2CC[C@]34C(=C(C(=O)OC)[C@H]1C[C@H]23)Nc1ccccc14

1: 5940 nM (active); 2: inactive

Look at this molecule and give its reported Potency. C/C(=C\[C@H](C)C(=O)C[C@H](O)CC1CC(=O)NC(=O)C1)[C@@H]1OC(=O)/C=C/CC/C=C/C=C/[C@@H]1C
118 nM (active)

###

# assay_explanation: Primary qHTS for Huh7 cytotoxicity: counterscreen for inhibitors of MERS-S pseudotyped particle cell entry (AID 1479147)
# details: cell viability read-out; series mostly up to 57.1 µM
Inconclusive results are not listed. The source made the active and inactive calls. Calls follow the shape of the full dose curve.
Hi! Could you answer with just one of these? yes (1) = active, no (0) = inactive

The examples below pair each entry with its known result.
[[record]]
compound = "CN1C2CC[C@@H]1CC(OC(=O)[C@H](CO)c1ccccc1)C2 (stereo not given in full)"
classification = "no (0)"

[[record]]
compound = "CC(C)OC(=O)Nc1ccc2nc(-c3cscn3)[nH]c2c1"
classification = "yes (1)"


Returns: the outcome recorded for C[C@H](Cc1cc2c(c(C(N)=O)c1)N(CCCO)CC2)NCCOc1ccccc1OCC(F)(F)F in this assay.
no (0)

Recorded test call requested for CCCCC(=O)N(Cc1ccc(-c2ccccc2-c2nn[nH]n2)cc1)[C@H](C(=O)O)C(C)C
no (0)

Record lookup: outcome of this test for CCCCc1cc2c(=O)c(C(=O)OC)c[nH]c2cc1OCc1ccccc1 ?
no (0)

###

# assay_explanation: qHTS assay for small molecule disruptors of mitochondrial membrane potential screened against the NCATS CANVASS Library (AID 1347389); note: % is set by controls: 0 for no effect and ±100 for the full control effect; nearly all actives have a fitted effect of over 60% in size
# details: HepG2 mitochondrial membrane potential, m-MPI red/green ratio, 1.5 h; series mostly up to 46.1 µM
Records with an inconclusive call do not appear. Active and inactive are the calls of the source. The call rests on the fitted dose curve; in most records, active means well fitted inhibition curve with a large enough effect; inconclusive means small, poorly fitted or top-dose-only effect; inactive means flat fitted curve, though single readings scatter. Starred links: 1 amine or outer side, 2 acyl side, 3 side chain; linkers in the order of their positions; H or OH if unused. Positions of bridges follow the written chain, without caps; N, C: chain ends. Non-standard residues stand in square brackets, D forms with d. Residues, ends and D or L forms follow the SMILES beside them. ξ: configuration not given here. *: point of attachment. X3 = C[C@@H](Oc1ccc([C@H](N[*:1])C(=O)[*:2])cc1)[C@]1(/C=C\C(=O)[*:3])CO1; d(aIle) = CC[C@H](C)[C@@H](N)C(=O)O; X2 = CC(C)[C@@H](O)C(C)C(=O)*; ξNMeF = CNC(Cc1ccccc1)C(=O)O; ξT = CC(O)C(N)C(=O)O; ξS = NC(CO)C(=O)O
Outcome field: choose from YES for active, NO for inactive

[[record]]
molecule = "C1=C2CCCN[C@H]2C2CC1[C@H]1CCCCN1C2 (stereo partly specified)"
classification = "NO"

[[record]]
molecule = "C/C=C1/CN2CC[C@]34C(=C(C(=O)OC)[C@H]1C[C@H]23)Nc1ccccc14"
classification = "NO"


Please share the test call associated with C[C@]12CC(O)C3[C@@H](CCC4C[C@@H](O)CC[C@@]43CO)[C@@]1(O)CC[C@@H]2C1=CC(=O)OC1 (stereo partly specified) .
NO

Query: recorded result category for CC[C@H](C)[C@H]1NC(=O)[C@@H](NC(=O)C(C)[C@H](O)C(C)C)[C@@H](C)OC(=O)C2COC(=O)CNC(=O)/C=C\[C@]3(CO3)[C@@H](C)Oc3ccc(cc3)[C@H](NC1=O)C(=O)N(C)C(Cc1ccccc1)C(=O)NC(C(C)O)C(=O)N2 (stereo partly specified) (X2-T[d(aIle)][X3][ξNMeF][ξT][ξS]; ester 1-C; linker 3-6 via G) in this test
NO

###

Give activity change, negative = inhibition for every item shown.
# assay_explanation: NFAT Signaling Pathway (AID 444);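 note: carbachol stimulus at about its EC50 of 1 µM final; % is set by controls: 0 for no effect and ±100 for the full control effect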
# details: Jurkat NFAT-bla M1, carbachol, beta-lactamase ratio, 5 h; at 17.2 µM (top of the series)
# Method: NCGC Assay Overview: The nuclear factor of activated T cells (NFAT) family of transcription factors has been found primarily in most immune system cells and some other non-immune cells. NFAT plays the immunomodulatory role, primarily in T-cell activation and differentiation. […] NCGC Assay Protocol Summary: The cells were prepared in RPMI 1640 medium containing 0.1% dialyzed FBS and 25 mM HEPES at 1.6 x 10^6cell/ml. […] The %Activity was determined from the ratio of 460nm/530nm. […]
Inconclusive results are not listed.
Answers are plain numbers, in %.

Record excerpt, results attached:
[[record]]
compound = "C=C1[C@@H]2C[C@@]3([C@H]1O)[C@H]1C[C@@H]4[C@@]5(C)CC[C@H](O)[C@]4([C@H]1N(CC)C5)[C@H]3C[C@H]2O"
measurement_type = "activity change, negative = inhibition"
assay_value = -13

[[record]]
compound = "N[C@H]1C[C@H]1c1ccccc1"
measurement_type = "activity change, negative = inhibition"
assay_value = -3.83

[[record]]
compound = "CC[C@H](CO)NC(=O)[C@H]1C=C2c3cccc4[nH]cc(c34)C[C@@H]2N(C)C1"
measurement_type = "activity change, negative = inhibition"
assay_value = -13.5

[[record]]
compound = "CN1CCc2cc3c(cc2[C@@H]1[C@@H]1OC(=O)c2c1ccc1c2OCO1)OCO3"
measurement_type = "activity change, negative = inhibition"
assay_value = 4.41

[[record]]
compound = "CN(C)[C@@H]1C(=O)C(C(N)=O)=C(O)[C@]2(O)C(=O)C3=C(O)c4c(O)ccc(Cl)c4[C@](C)(O)[C@H]3C[C@@H]12"
measurement_type = "activity change, negative = inhibition"
assay_value = -5.59

[[record]]
compound = "CNC[C@H](O)c1ccc(O)cc1"
measurement_type = "activity change, negative = inhibition"
assay_value = -22.7


I'm hoping you can list activity change, negative = inhibition for every compound here, please.
1. C[N+]1(C)[C@@H]2CC[C@H]1CC(OC(=O)[C@@H](CO)c1ccccc1)C2 (some centres undefined)
2. C[C@H](N)[C@@H](O)c1ccccc1
3. O=C(NCNC(=O)N[C@H]1C(=O)NC(=O)N1CO)N[C@H]1C(=O)NC(=O)N1CO

1. -48.4
2. 10.1
3. -14

###

# assay_explanation: qHTS for differential inhibitors of proliferation of Plasmodium falciparum line Dd2 (AID 1882); note: nearly all actives have a fitted effect of over 65% in size; note: potency is the fitted concentration of half-maximal effect
# details: Plasmodium falciparum Dd2 proliferation inhibition; series mostly up to 28.7 µM
Results filed as inconclusive are left out. The source made the active and inactive calls. Calls follow the shape of the dose curve; as a rule, active = well fitted inhibition curve with a large enough effect; inconclusive = small, poorly fitted or top-dose-only effect; inactive = flat fitted curve, though single readings scatter.
measurement_type: Potency

[[record]]
molecule = "C[C@]12CC[C@H](OS(=O)(=O)O)CC1=CCC1C2CC[C@]2(C)C(=O)CC[C@@H]12 (some centres undefined)"
measurement_type = "Potency"
assay_value = "inactive"

[[record]]
molecule = "COc1cc(C[C@@H](C)N)c(OC)cc1I"
measurement_type = "Potency"
assay_value = "7.08 µM (active)"

[[record]]
molecule = "COC(=O)C(N)CCCN=C(N)N[N+](=O)[O-] (centres undefined)"
measurement_type = "Potency"
assay_value = "inactive"

[[record]]
molecule = "CN1CCC23CCCC[C@H]2C1Cc1ccc(O)cc13 (some centres undefined)"
measurement_type = "Potency"
assay_value = "5.01 µM (active)"

[[record]]
molecule = "NCC#Cc1ccccc1"
measurement_type = "Potency"
assay_value = "inactive"


// batch mode: one Potency value per listed entry
1. Oc1ccc2c3c1O[C@H]1[C@@H](O)CC[C@@]4(O)C(C2)N(CC2CCC2)CCC314 (some centres undefined)
2. Oc1cc2c(cc1O)[C@H]1c3ccccc3CNC1CC2 (some centres undefined)
3. CC(C)[C@@]1(NC(=O)[C@@H]2C[C@@H]3c4cccc5[nH]cc(c45)C[C@H]3N(C)C2)O[C@@]2(O)C3CCCN3C(=O)[C@H](Cc3ccccc3)N2C1=O (some centres undefined)
4. CC(C)(O)C1C2OC(=O)C1[C@]1(O)C[C@H]3O[C@]34C(=O)O[C@H]2[C@]14C (some centres undefined) (tested in a mixture with another compound)

inactive
8.91 µM (active)
1.41 µM (active)
inactive
